# pIC50 values compiled below
- assay.target: human TLR7 (Homo sapiens)
- Sequence (Q9NYK1 27-1049): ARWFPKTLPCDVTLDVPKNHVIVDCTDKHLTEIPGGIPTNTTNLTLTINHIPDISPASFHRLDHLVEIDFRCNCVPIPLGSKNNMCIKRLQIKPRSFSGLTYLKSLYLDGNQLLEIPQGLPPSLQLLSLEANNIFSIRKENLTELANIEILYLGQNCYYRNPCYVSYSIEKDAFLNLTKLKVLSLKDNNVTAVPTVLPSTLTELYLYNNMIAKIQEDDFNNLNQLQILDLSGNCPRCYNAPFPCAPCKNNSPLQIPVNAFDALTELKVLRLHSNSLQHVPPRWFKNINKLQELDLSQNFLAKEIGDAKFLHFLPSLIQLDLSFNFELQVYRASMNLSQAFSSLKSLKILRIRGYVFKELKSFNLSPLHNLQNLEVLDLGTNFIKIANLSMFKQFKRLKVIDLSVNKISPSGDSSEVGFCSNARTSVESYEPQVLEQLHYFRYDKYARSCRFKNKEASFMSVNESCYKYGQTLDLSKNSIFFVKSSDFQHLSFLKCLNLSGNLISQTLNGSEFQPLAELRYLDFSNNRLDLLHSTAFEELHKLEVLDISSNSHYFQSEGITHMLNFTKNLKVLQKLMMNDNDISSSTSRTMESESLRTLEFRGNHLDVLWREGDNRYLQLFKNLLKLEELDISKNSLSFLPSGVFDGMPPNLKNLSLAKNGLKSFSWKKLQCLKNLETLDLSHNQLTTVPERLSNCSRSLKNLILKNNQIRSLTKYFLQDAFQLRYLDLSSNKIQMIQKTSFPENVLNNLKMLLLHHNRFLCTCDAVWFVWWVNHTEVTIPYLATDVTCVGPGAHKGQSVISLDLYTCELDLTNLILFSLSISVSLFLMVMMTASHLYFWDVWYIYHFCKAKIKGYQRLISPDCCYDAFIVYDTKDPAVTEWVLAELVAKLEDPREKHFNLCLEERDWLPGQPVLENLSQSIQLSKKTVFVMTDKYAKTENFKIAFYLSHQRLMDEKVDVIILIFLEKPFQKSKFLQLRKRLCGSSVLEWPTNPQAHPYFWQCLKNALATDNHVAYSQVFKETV
- assay.comment: TLR7 inhibition reporter assay (HEK-Blue SEAP)
- cond: HEK-Blue cells overexpressing human TLR7, gardiquimod 7.5 μM, 22 hour incubation
Lab note — pIC50 values are minus log10 of concentrations in M.

# molecule, assay.target, pIC50
measured = [
    ("COc1cc(-c2cc3[nH]c(=O)n([C@@H]4CCCN(CC5CCOCC5)C4)c3cc2C)cn2ncnc12 [Example 57]", "human TLR7 (Homo sapiens)", 8.09),
    ("COc1cc(-c2cc3[nH]c(=O)n([C@@H]4CCCN(C5CCOC5)C4)c3cc2C(C)C)cn2ncnc12 (stereo partly drawn) [Example 217]", "human TLR7 (Homo sapiens)", 7.95),
    ("COCCN1CCC[C@@H](n2c(=O)[nH]c3cc(-c4cc(OC)c5ncnn5c4)c(C(C)C)cc32)C1 (single isomer, unassigned) [Example 225]", "human TLR7 (Homo sapiens)", 8.10),
    ("CCc1cc2c(cc1-c1cc(OC)c3ncnn3c1)[nH]c(=O)n2[C@H]1CC[C@@H](NC2COC2)CC1 [Example 170]", "human TLR7 (Homo sapiens)", 8.20),
    ("COc1cc(-c2ccc3c(c2)[nH]c(=O)n3C2CCN(C3CCOC3)CC2)cn2ncnc12 (stereo not drawn) [Example 81]", "human TLR7 (Homo sapiens)", 5.58),
]

[ask] Report pIC50 for COc1cc(-c2cc3[nH]c(=O)n([C@@H]4CCCN(C5CCCOC5)C4)c3cc2C(C)C)cn2ncnc12 (single isomer, unassigned) [Example 218] tested on human TLR7 (Homo sapiens).
[reply] 8.27

[ask] Form: Entry = CCCN1CCC[C@@H](n2c(=O)[nH]c3cc(-c4cc(OC)c5ncnn5c4)c(CC)cc32)C1 [Example 179] | System = human TLR7 (Homo sapiens) | pIC50 = ____
[reply] 8.97

[ask] What reported pIC50 corresponds to COc1cc(-c2cc3[nH]c(=O)n(C4CCC(N5CC[C@H](F)C5)CC4)c3cc2C(C)C)cn2ncnc12 (stereo partly drawn) [Example 286] on human TLR7 (Homo sapiens)?
[reply] 9.15

[ask] Give human TLR7 (Homo sapiens) pIC50 for CCc1cc2c(cc1-c1cc(OC)c3ncnn3c1)[nH]c(=O)n2[C@@H]1CCCN(C2CCOC2)C1 (stereo partly drawn) [Example 213]
[reply] 7.43

###

- assay.target: human TLR9 (Homo sapiens, UniProt Q9NR96)
- Construct: host or cells: HEK-Blue cells
- Sequence (Q9NR96 26-1032): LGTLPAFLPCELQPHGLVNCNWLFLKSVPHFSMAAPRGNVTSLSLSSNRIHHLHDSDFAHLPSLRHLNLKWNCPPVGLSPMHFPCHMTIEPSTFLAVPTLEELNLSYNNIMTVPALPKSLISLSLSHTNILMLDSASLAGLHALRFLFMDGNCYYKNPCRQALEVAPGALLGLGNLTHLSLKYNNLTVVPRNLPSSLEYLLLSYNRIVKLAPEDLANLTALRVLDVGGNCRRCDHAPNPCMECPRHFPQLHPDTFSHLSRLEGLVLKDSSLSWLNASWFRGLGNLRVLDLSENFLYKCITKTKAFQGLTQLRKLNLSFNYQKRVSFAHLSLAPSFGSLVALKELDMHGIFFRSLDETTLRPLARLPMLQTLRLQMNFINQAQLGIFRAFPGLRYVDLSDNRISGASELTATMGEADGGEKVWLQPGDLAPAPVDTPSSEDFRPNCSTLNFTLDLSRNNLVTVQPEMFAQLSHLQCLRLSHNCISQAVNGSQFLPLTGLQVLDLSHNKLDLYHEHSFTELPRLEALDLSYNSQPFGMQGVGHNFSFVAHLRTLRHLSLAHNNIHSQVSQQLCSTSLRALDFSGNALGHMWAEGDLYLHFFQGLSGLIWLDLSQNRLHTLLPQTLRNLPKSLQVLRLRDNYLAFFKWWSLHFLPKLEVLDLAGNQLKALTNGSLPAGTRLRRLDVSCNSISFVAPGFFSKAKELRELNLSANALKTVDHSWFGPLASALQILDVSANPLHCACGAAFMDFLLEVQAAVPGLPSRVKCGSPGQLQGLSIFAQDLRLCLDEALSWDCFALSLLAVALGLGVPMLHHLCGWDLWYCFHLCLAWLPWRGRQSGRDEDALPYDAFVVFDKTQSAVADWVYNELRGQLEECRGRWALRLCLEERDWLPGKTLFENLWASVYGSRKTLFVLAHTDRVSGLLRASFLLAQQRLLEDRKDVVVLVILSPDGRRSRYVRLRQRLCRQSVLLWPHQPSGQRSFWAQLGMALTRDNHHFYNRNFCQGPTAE
- assay.comment: TLR9 inhibition reporter assay (HEK-Blue SEAP)
- Assay type: cell-based
- cond: HEK-Blue cells overexpressing human TLR9, ODN2006 5 nM, 22 hour incubation
Readings of pIC50 for the listed compounds
Reminder that pIC50 means the negative base-10 logarithm of the concentration expressed in mol/L.

In the examples that follow, each entry is paired with its recorded pIC50.
# compound, quantitative.result
data = [
    ("COc1cc(-c2cc3[nH]c(=O)n(C4CCC(N5CCSCC5)CC4)c3cc2C(C)C)cn2ncnc12 (stereo not shown) [Example 251]", 4.93),
    ("COc1cc(-c2cc3[nH]c(=O)n([C@@H]4CCCNC4)c3cc2C(F)(F)F)cn2ncnc12", 5.57),
    ("COc1c(C)c(-c2cc3[nH]c(=O)n(C4CCC(N5CC6(COC6)C5)CC4)c3cc2C(C)C)cn2ncnc12 (single isomer, unassigned) [Example 270]", 4.93),
    ("COc1cc(-c2cc3[nH]c(=O)n([C@@H]4CCCN(C(C)C)C4)c3cc2C(C)C)cn2ncnc12", 5.15),
    ("COC1CN(C2CCC(n3c(=O)[nH]c4cc(-c5cn6ncnc6c(C)c5C)c(C(C)C)cc43)CC2)C1 (single isomer, unassigned) [Example 278]", 4.82),
]

[ask] Return reported pIC50; argument: COc1cc(-c2cc3[nH]c(=O)n(C4CCC(N5C[C@@H](F)[C@@H](F)C5)CC4)c3cc2C(C)C)cn2ncnc12 (single isomer, unassigned) [Example 293]
[reply] 4.63

[ask] For the compound shown here, `CCN1CCC[C@@H](n2c(=O)[nH]c3cc(-c4cc(OC)c5ncnn5c4)c(C)cc32)C1` , give the reported pIC50.
[reply] 5.53

###

- assay.target: human TLR8 (Homo sapiens)
- Sequence (Q9NR97 27-1041): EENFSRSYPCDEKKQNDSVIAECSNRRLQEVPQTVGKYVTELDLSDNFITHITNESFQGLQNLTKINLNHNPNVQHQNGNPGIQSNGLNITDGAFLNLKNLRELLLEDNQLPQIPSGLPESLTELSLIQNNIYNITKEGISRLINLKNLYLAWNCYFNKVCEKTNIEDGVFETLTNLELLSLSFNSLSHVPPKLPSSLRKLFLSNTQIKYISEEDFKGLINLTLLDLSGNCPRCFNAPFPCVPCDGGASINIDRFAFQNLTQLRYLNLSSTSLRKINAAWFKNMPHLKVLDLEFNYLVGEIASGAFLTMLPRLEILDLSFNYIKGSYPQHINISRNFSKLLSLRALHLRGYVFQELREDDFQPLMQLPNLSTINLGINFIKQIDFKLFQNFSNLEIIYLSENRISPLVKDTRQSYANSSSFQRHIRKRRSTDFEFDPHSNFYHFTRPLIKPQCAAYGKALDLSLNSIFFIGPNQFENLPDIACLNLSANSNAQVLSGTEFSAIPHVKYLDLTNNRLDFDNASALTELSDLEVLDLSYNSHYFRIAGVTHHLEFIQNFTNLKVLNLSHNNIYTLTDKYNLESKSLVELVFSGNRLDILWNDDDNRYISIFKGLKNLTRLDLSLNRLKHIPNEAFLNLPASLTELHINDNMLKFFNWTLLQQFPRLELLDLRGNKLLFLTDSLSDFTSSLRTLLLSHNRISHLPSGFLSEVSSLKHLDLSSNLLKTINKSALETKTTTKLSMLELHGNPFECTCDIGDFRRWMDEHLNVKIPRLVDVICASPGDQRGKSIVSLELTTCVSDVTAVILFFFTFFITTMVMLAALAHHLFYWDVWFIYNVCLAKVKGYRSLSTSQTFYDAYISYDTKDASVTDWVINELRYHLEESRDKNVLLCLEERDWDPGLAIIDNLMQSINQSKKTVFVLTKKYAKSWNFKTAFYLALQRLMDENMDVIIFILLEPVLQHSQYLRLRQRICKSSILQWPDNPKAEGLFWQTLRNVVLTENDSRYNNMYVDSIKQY
- assay.comment: TLR8 inhibition reporter assay (HEK-Blue SEAP)
- cond: HEK-Blue cells overexpressing human TLR8, R848 15.9 μM, 22 hour incubation
outcome.measure: pIC50
Note on pIC50: it is the negative log10 of concentration, concentration in mol/L.

A selection of reference data follows.
# molecule, pIC50
measured = [
    ("COc1cc(-c2cc3[nH]c(=O)n(C4CCC(N5CCC(OC)C5)CC4)c3cc2C(C)C)cn2ncnc12 (stereo not shown) [Example 284]", 9.74),
    ("CCc1cc2c(cc1-c1cc(OC)c3ncnn3c1)[nH]c(=O)n2[C@@H]1CCCN(CC(C)C)C1 [Example 177]", 8.36),
    ("Cc1cc(-c2cc(C)c3ncnn3c2)cc2[nH]c(=O)n(C3CCN(CC(=O)N(C)C)CC3)c12 [Example 109]", 6.27),
]

[ask] # input molecule: Cc1c(-c2cc3[nH]c(=O)n([C@H]4CC[C@@H](NC(C)C)CC4)c3cc2C(C)C)cn2ncnc2c1C [Example 186] ; wanted: its pIC50
[reply] 9.89

[ask] What does the record list as pIC50 for Cc1cc2c(cc1-c1cc(C)c3ncnn3c1)[nH]c(=O)n2[C@@H]1CCCN(Cc2cccnc2)C1 [Example 46] ?
[reply] 7.37

[ask] Need pIC50 of COc1cc(-c2ccc3c(c2)[nH]c(=O)n3C2CCN(CC3CCOCC3)CC2)cn2ncnc12 [Example 78] , thanks.
[reply] 5.86

[ask] # query: pIC50 of entry CCc1cc2c(cc1-c1cc(OC)c3ncnn3c1)[nH]c(=O)n2[C@@H]1CCCN(C(=O)CN(C)C)C1 [Example 228]
[reply] 7.41

[ask] Recorded pIC50 of COc1cc(-c2cc3[nH]c(=O)n([C@@H]4CCCN(C)C4)c3cc2C(C)C)cn2ncnc12 [Example 136] , please.
[reply] 8.70

[ask] Look up pIC50 for this molecule: CCCN1CCC[C@@H](n2c(=O)[nH]c3cc(-c4cn5ncnc5c(C)c4C)c(C(C)C)cc32)C1 [Example 150]
[reply] 8.37

[ask] // lookup pIC50 for COc1cc(-c2cc3[nH]c(=O)n([C@H]4CC[C@H](NC(C)C)CC4)c3cc2C(C)C)cn2ncnc12 [Example 203]
[reply] 8.87

[ask] Give the measured pIC50 of COc1cc(-c2cc3[nH]c(=O)n(C4CCC(N5CC[C@H](F)C5)CC4)c3cc2C(C)C)cn2ncnc12 (stereo partly shown) [Example 286] .
[reply] 9.05

[ask] Reported pIC50 for COc1cc(-c2cc3[nH]c(=O)n([C@H]4CC[C@@H](NCC(C)C)CC4)c3cc2C)cn2ncnc12 [Example 61] : what is it?
[reply] 8.63

[ask] Which pIC50 reading was recorded for the molecule COc1cc(-c2cc3[nH]c(=O)n([C@@H]4CCCN(C)C4)c3cc2C(F)(F)F)cn2ncnc12 [Example 114] ?
[reply] 9.54

[ask] What value of measured pIC50 is listed for COc1cc(-c2cc3[nH]c(=O)n([C@H]4CCCN(CCS(C)(=O)=O)C4)c3cc2C(C)C)cn2ncnc12 [Example 222] ?
[reply] 7.27

[ask] Given the entry COc1cc(-c2cc3[nH]c(=O)n(C4CCC(N(C)CCC(F)(F)F)CC4)c3cc2C(C)C)cn2ncnc12 (single isomer, unassigned) [Example 248] , report its measured pIC50.
[reply] 9.77

[ask] Given the entry Cc1c(-c2cc3[nH]c(=O)n(C4CCC(N5CCCOCC5)CC4)c3cc2C(C)C)cn2ncnc2c1C (stereo not shown) [Example 271] , report its measured pIC50.
[reply] 9.44
